Target: Yes (h) (Homo sapiens)
Sequence (P07947 whole entry): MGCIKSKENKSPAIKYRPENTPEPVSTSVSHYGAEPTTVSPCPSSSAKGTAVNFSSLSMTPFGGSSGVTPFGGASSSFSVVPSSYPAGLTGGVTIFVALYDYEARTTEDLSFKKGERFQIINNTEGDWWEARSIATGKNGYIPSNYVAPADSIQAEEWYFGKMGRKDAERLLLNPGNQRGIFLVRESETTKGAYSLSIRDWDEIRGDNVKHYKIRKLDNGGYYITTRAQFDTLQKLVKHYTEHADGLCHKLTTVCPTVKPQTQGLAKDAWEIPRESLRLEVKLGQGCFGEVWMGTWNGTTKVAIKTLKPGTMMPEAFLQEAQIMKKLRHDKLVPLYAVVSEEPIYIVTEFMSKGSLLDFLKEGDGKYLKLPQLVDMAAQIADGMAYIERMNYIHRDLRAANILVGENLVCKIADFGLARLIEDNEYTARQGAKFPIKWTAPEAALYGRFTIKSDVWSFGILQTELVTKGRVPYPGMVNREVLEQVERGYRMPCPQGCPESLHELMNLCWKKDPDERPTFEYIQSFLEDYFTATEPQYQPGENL
Test: Kinase profiling C3.10 Yes human
Format: biochemical
Conditions: test concentration of 10^−6 M
Reported C3.10 score values are given for each entry in this list.

Some entries whose results are on file:
In [3]: df
Out[3]:
                                   compound                   value_observed
0  CN1CCCc2cc(ccn2)-c2ncnc(n2)Nc2cccc(c2)CNC(=O)C1  2 (Score 2 = 30-60% inhibition)
1  O=C1NCCCc2cc(ccn2)-c2ncnc(n2)Nc2cccc(c2)CN2C[C@H](O)C[C@@H]12  1 (Score 1 = 10-30% inhibition)
2  CN1CC(=O)NCC#Cc2cc(ccn2)-c2ncnc(n2)Nc2cccc(c2)C1  3 (Score 3 = 60-80% inhibition)

Proceeding to the next compound to report its C3.10 score.
Input: Can you look up the measured C3.10 score of O=C1NCCCc2cc(ccn2)-c2ncnc(n2)Nc2cccc(c2)CN2CCCC12 (stereo not shown) for me?
Output: 2 (Score 2 = 30-60% inhibition)
